- PROTOCOL DETAILS: chemical genetic growth profiling, strain panel (AID 1159580);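 note: tested at 20 µM; growth read once vehicle control cultures reached saturation at 30 °C; lower values mean less growth of the strain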
- CONDITION NOTES: S. cerevisiae deletion strains, growth OD, locus YCL061C, strain MRC1
Screen size: about 5,500 compounds; about 2,000 (36%) were called active. About 18% were inconclusive and are not listed. Cut-off read from the data, not from the text of the source: active = normalized growth mostly below about 0.91 (no sharp cut-off); inconclusive = no clear call, values can overlap the other calls; inactive = mostly above about 0.92. The list shows a part of the results.
Classes used: active, inactive

{"COMPOUND": "Fc1cc(F)cc(COc2cc(Cl)cc(Cl)c2)c1", "CLASSIFICATION": "inactive"}
{"COMPOUND": "O=S(=O)(Oc1ccc(OCc2ccccc2)cc1)c1cc(Cl)cc(Cl)c1", "CLASSIFICATION": "inactive"}
{"COMPOUND": "Nc1ccc(S(=O)(=O)NC(=O)c2ccccc2)cc1", "CLASSIFICATION": "inactive"}
{"COMPOUND": "CS(=O)(=O)Nc1ccc([N+](=O)[O-])cc1Oc1ccccc1", "CLASSIFICATION": "inactive"}
{"COMPOUND": "c1ccc(-c2nc(-c3cccs3)cs2)cc1", "CLASSIFICATION": "active"}
{"COMPOUND": "NCC(=O)c1ccccc1", "CLASSIFICATION": "inactive"}
{"COMPOUND": "Cc1cc(=O)oc2cc(O)cc(O)c12", "CLASSIFICATION": "inactive"}
{"COMPOUND": "C/C1=C/CC(C)(C)/C=C/C/C(C)=C/CC1", "CLASSIFICATION": "inactive"}
{"COMPOUND": "COC(=O)/C(=C1\\OC(=O)C(c2ccccc2)=C1O)c1ccccc1", "CLASSIFICATION": "inactive"}
{"COMPOUND": "Oc1cccc(O)c1", "CLASSIFICATION": "inactive"}
{"COMPOUND": "CC(C)CCCC(C)C1CCC2C3=CC[C@H]4C[C@@H](O)CC[C@]4(C)C3CC[C@@]21C (stereo partly specified)", "CLASSIFICATION": "inactive"}
{"COMPOUND": "O=C(O)c1cccnc1", "CLASSIFICATION": "inactive"}
{"COMPOUND": "CC(=O)Nc1ccc(S(=O)(=O)Nc2onc(C)c2C)cc1", "CLASSIFICATION": "inactive"}
{"COMPOUND": "NC(=O)c1cccnc1", "CLASSIFICATION": "inactive"}
{"COMPOUND": "Cc1cc(=O)oc2cc(O)c(O)cc12", "CLASSIFICATION": "inactive"}
{"COMPOUND": "O=C(O)c1ccccc1", "CLASSIFICATION": "inactive"}
{"COMPOUND": "COc1cc(C/C=C/c2ccccc2)c(OC)cc1O", "CLASSIFICATION": "inactive"}
{"COMPOUND": "FC(F)(F)c1cc(-c2noc(C3CCc4ccccc4O3)n2)cc(C(F)(F)F)c1 (stereo unspecified)", "CLASSIFICATION": "inactive"}
{"COMPOUND": "O=C(NCO)c1cccnc1", "CLASSIFICATION": "inactive"}
{"COMPOUND": "CC12CCC(=O)C=C1CCC1C2[C@@H](O)CC2(C)C1CC[C@]2(O)C(=O)COP(=O)(O)O (stereo partly specified)", "CLASSIFICATION": "inactive"}
{"COMPOUND": "CC(CCc1ccccc1)NCC(O)c1ccc(O)c(C(N)=O)c1 (stereo unspecified)", "CLASSIFICATION": "inactive"}
{"COMPOUND": "CC[N+](C)(C)c1cccc(O)c1", "CLASSIFICATION": "inactive"}
{"COMPOUND": "CC(C)CCCC(C)C1CCC2C3C[C@@H](O)[C@@]4(O)C[C@@H](O)CC[C@]4(C)C3CC[C@]12C (stereo partly specified)", "CLASSIFICATION": "inactive"}
{"COMPOUND": "CC(C)(C)NCC(O)c1ccc(O)c(CO)c1 (stereo unspecified)", "CLASSIFICATION": "inactive"}
{"COMPOUND": "O=C(OOC(=O)c1ccccc1)c1ccccc1", "CLASSIFICATION": "inactive"}
{"COMPOUND": "Cc1nc(N)cc(C[n+]2csc(CCO)c2C)n1", "CLASSIFICATION": "inactive"}

The measured values listed here are drawn from PubChem BioAssay AID1159580.
